- SYSTEM_UNDER_TEST: human ROR1 (hROR1) on cells (human, UniProt Q01973 30-937)
- Sequence (Q01973 30-937): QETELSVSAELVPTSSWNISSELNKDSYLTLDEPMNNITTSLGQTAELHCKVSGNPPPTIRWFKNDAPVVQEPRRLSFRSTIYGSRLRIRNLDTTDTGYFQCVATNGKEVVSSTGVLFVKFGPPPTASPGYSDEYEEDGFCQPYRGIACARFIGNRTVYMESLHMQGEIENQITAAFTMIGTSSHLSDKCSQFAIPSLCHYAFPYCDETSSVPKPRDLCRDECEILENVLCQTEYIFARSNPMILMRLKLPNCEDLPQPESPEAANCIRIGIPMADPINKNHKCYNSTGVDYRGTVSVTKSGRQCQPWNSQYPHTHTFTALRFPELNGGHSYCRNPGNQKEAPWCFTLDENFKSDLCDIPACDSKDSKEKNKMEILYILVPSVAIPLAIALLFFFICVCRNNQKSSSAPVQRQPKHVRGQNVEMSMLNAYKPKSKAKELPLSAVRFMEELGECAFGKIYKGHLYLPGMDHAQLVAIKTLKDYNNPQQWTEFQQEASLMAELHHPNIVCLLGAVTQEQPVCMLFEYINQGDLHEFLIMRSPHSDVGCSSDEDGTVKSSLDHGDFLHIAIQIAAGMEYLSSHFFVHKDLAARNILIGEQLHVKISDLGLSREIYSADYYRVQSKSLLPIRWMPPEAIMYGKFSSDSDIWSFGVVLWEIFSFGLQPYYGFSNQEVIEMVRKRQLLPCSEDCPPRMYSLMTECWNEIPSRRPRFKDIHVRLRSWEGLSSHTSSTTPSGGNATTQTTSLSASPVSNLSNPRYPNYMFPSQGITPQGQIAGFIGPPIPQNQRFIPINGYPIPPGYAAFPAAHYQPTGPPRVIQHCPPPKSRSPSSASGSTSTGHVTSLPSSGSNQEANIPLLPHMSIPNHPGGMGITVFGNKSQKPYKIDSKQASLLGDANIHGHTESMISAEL
- EXPERIMENT: cell-based or functional assay
Listed binders paired with reported ADCC Cytotoxicity (%), Donor 1, 1 nM

{"columns": ["BINDER", "ADCC Cytotoxicity (%), Donor 1, 1 nM"],
 "data": [
  ["PR001357 (antibody, human IgG1, kappa, V domains shown, fully human IgG1, kappa) VH: QVQLVQSGGGVVQPGRSLRLSCAASGFTFSSYGMHWVRQAPGKGLEWVAVIWYDGSNKDYADSVKGRFTISRDTSKNTLYLQMNSLRAEDTAVYYCAREQARSFDLWGRGTLVTVSS VL: DIQLTQSPYSLSASVGDRVTITCRASQTINNWLAWYQQKPGKAPKLLIYKASSLESGVPSRFSGSGSGTEFTLTISSLQPDDFATYYCQQYKLYSPMYTFGQGTKVEIKR", 32.1],
  ["PR001354 (antibody, human IgG1, kappa, V domains shown, fully human IgG1, kappa; also called anti-ROR1 1015M2-C9 hIgG1; PR001354(WT)) VH: QVQLVQSGGGVVQPGRSLRLSCAASGFTFSSYGMHWVRQAPGKGLEWVAIMWYDGSDKDYADSVKGRFTISRDTSKNTLYLQMNSLRAEDTAVYYCAREQARSFDLWGRGTLVTVSS VL: DIVMTQSPSSLSASVGDRVTITCRASQTINNWLAWYQQKPGKAPKLLIYKASSLESGVPSRFSGSGSGTEFTLTISSLQPDDFATYYCQQYNSYSPMYTFGQGTKVEIKR", 33.5],
  ["Positive control antibody (PR000374) (antibody, human IgG1, kappa, V domains shown) VH: EVQLVESGGGLVQPGRSLRLSCTASGSDINDYPITWVRQAPGQGLEWIGFINSGGSTWYASWVKGRFTISRDDSKSIAYLQMNSLKTEDTAVYYCARGYSTYYRDFNIWGQGTLVTVSS VL: DIQMTQSPSSLSASVGDRVTINCQASQSIDSNLAWFQQKPGQPPKLLIYRASNLASGVPDRFSGSGSGTDFTLTISSLEAEDVATYYCLGGVGAVSYRTSFGGGTKVEIKR", 14.4],
  ["PR001362 (antibody, V domains shown, fully human IgG1, kappa) VH: QVQLVESGGGLVQPGGSLRLSCAASGFTFSTYGMHWVRQAPGKGLEWVAVIWYDGSDEDYADSVKGRFTISRDNSKNTLYLQMNSLRAEDTAVYYCARDQARSFDLWGRGTLVTVSS VL: DIVMTQSPSTLSASVGDRVTITCRASQSINSWLAWYQQKPGKAPKLLIYKASSLESGVPSRFSGSGSGTEFTLTISSLQPDDFATYYCQQYKSYSPMYTFGQGTKVEIKR", 13.9],
  ["PR001355 (antibody, human IgG1, kappa, V domains shown, fully human IgG1, kappa) VH: QVQLVQSGGGLVQPGGSLRLSCAASGFTFSSYGMHWVRQAPGKGLEWVAVIWYDGSNKDYADSVKGRFTISRDTSKNTLYLQMNSLRAEDTAVYYCVREQARSFDLWGRGTLVTVSS VL: DIQMTQSPSSLSASVGDRVTITCRASQTMNNWLAWYQQKPGKAPKLLIYKASSLESGVPSRFSGSGSGTEFTLTISSLQPDDSATYYCQQYNSYSPMYTFGQGTKLEIKR", 25.7],
  ["PR001359 (antibody, human IgG1, kappa, V domains shown, fully human IgG1, kappa) VH: QVQLVESGGGVVQPGRSLRLSCAASGFTFSTYGMHWVRQAPGKGLEWVAVTWYDGSDKDYADSVKGRFTISRDTSKNTLYLQMNSLRAEDTAVYYCAREQARSFDLWGRGTLVTVSS VL: DIVMTQSPSTLSASVGDRVTITCRASQSVNNWLAWYQQKPGKAPKLLIYKASSLESGVPSRFSGSGSGTEFTLTISSLQPDDFATYYCQQYKSYSPMYTFGQGTKVEIKR", 33.7]
]}

Where these numbers come from: patent US20240010721A1
